Item-by-item account of remaining binding at 1 µM
Molecular target: ALK(L1196M) (Homo sapiens, UniProt Q9UM73, L1196M)
Construct: purchased Eurofins DiscoverX KINOMEscan (scanTK)
Sequence (Q9UM73 19-1620 L1196M): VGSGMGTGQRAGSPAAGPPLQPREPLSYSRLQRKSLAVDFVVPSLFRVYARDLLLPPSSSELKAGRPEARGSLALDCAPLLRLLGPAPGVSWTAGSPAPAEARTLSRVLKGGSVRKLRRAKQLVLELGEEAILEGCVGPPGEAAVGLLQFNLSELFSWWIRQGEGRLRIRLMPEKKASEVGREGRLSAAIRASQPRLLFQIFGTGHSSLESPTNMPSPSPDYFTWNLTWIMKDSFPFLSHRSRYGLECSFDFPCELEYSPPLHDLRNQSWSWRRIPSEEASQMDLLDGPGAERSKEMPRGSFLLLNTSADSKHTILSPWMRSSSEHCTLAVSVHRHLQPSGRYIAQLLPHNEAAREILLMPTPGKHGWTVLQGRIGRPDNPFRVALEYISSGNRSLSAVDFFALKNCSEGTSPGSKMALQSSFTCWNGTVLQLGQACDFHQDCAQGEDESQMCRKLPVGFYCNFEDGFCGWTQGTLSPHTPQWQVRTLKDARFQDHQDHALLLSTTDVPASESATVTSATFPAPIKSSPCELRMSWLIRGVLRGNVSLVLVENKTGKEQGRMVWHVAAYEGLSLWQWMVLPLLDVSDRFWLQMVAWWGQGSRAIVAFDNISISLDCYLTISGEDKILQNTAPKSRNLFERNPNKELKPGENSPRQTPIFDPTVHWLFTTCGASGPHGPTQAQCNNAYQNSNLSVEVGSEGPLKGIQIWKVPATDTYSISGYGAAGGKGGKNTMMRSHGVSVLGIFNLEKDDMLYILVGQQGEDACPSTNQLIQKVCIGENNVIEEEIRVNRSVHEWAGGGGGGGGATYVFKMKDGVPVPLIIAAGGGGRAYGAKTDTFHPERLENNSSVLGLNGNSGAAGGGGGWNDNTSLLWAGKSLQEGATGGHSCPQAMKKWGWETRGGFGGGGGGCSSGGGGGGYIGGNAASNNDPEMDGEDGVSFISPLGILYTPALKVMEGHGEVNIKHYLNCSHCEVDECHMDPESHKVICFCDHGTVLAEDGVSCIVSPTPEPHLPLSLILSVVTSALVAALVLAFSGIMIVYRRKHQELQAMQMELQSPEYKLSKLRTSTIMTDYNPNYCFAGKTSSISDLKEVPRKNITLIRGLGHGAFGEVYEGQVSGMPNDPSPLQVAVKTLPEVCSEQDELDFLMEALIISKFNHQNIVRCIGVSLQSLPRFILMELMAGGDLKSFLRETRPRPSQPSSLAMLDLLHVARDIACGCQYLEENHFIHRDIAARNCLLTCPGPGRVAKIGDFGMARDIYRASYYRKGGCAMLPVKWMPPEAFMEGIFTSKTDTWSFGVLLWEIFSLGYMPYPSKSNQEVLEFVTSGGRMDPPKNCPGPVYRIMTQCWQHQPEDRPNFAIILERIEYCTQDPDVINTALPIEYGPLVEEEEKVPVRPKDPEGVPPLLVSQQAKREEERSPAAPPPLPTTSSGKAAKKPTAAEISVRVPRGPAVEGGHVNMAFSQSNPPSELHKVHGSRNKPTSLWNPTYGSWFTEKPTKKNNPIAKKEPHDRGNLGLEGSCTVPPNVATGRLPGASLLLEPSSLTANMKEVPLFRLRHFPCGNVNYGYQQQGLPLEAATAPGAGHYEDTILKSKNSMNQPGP
Assay: KINOMEscan ScanTK
Type: binding
Details: @1000nM, read-out: %Control
Express it in %; write the number only.

In the examples that follow, each entry is paired with its recorded remaining binding at 1 µM.
Compound: CNC(=O)c1cnc(S(C)(=O)=O)nc1N1CCCC(n2nc(-c3ccc(Oc4ccccc4)cc3)c3c(N)ncnc32)C1 (centres unmarked)
Experimental Target: ALK(L1196M) (Homo sapiens, UniProt Q9UM73, L1196M)
remaining binding at 1 µM (%): 79

Compound: C=CC(=O)N1CCC[C@@H](n2nc(-c3ccc(Oc4ccccc4)cc3)c3c(N)ncnc32)C1 [Compound 1g, Ibrutinib, reference compound]
Experimental Target: ALK(L1196M) (Homo sapiens, UniProt Q9UM73, L1196M)
remaining binding at 1 µM (%): 100

Compound: Cc1cnc(S(C)(=O)=O)nc1N1CCCC(n2nc(-c3ccc(Oc4ccccc4)cc3)c3c(N)ncnc32)C1 (centres unmarked)
Experimental Target: ALK(L1196M) (Homo sapiens, UniProt Q9UM73, L1196M)
remaining binding at 1 µM (%): 95

Compound: COC(=O)c1cnc(S(C)(=O)=O)nc1N1CCCC(n2nc(-c3ccc(Oc4ccccc4)cc3)c3c(N)ncnc32)C1 (centres unmarked)
Experimental Target: ALK(L1196M) (Homo sapiens, UniProt Q9UM73, L1196M)
remaining binding at 1 µM (%): 92

Returns the measured remaining binding at 1 µM for the input compound. Input: CCOC(=O)c1cnc(S(C)(=O)=O)nc1N1CCC[C@@H](n2nc(-c3ccc(Oc4ccccc4)cc3)c3c(N)ncnc32)C1
77
